system: human neural stem cells (hNSCs); test: Neuronal differentiation of human neural stem cells (TUJ-1 staining); format: cell-based; conditions: Homo sapiens, Neural stem cell, read-out: EC50 for neuronal differentiation in the presence of 1.0 μM NBQX, hNSCs; with 1.0 μM AMPA antagonist NBQX
Metric: EC50

So for Cc1onc(O)c1CC(N)C(=O)O (stereo not shown) , the logged EC50 turned out to be > 32 µM
